- target_or_system: T1, 4H906-bN
- T1 chain: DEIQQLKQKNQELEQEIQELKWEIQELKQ
- test_protocol: two-hybrid library CCNG1;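 also: natural log of median RNA to DNA barcode read ratio; higher means stronger binding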
property: interaction score

Worked examples follow.
>>> experimental_value("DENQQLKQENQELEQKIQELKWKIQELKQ [4H1710-bN]")
0.452
>>> experimental_value("DKNQQLEQKNQELEQEIQELEWKIQELKQ [4H3462-bN]")
-0.328
>>> experimental_value("DEIQQLKQEIQELKQKNQELEWEIQELKQ [4H626-bN]")
-0.523

[a] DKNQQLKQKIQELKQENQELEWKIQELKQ [4H3926-bN]
[b] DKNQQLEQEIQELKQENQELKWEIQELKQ [4H3162-bN]
Response body: label of entry with the larger interaction score; valid values a , b . Please indicate the selected item by its label. b
(b: -0.289, a: -0.529)

[A] DEIQQLKQEIQELKQKIQELKWENQELEQ [4H619-bN]
[B] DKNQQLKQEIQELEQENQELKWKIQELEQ [4H3613-bN]
[C] DKNQQLKQKNQELEQEIQELEWKIQELKQ [4H3974-bN]
[D] DKNQQLEQENQELKQKIQELEWEIQELKQ [4H3298-bN]
Put the binders in ascending order of interaction score. Lab note: record answer as labels in requested order. B, C, A, D
